Assay: Binding affinity to chymotrypsin (unknown origin) assessed as acetylation at pH 6
Conditions: Homo sapiens
Criterion: log K strictly under 3. Met: YES. Not met: NO.

Example results:
INSERT INTO measurements (smiles_code, class_name) VALUES
  ('Cc1ccc(C(=O)Oc2ccc([N+](=O)[O-])cc2)cc1', 'YES'),
  ('CCc1ccc(C(=O)Oc2ccc([N+](=O)[O-])cc2)cc1', 'NO'),
  ('O=C(Oc1ccc([N+](=O)[O-])cc1)c1cccc(F)c1', 'NO'),
  ('O=C(Oc1ccc([N+](=O)[O-])cc1)c1ccccc1', 'YES'),
  ('O=C(Oc1ccc([N+](=O)[O-])cc1)c1cccc(Cl)c1', 'NO');

Hello, is log K of the following compound strictly smaller than 3? O=C(Oc1ccc([N+](=O)[O-])cc1)c1ccc([N+](=O)[O-])cc1 NO

---

Assay: Binding affinity to chymotrypsin (unknown origin) assessed as deacetylation
Conditions: Homo sapiens
MEASURED_PROPERTY: log K
Write the number on its own, no unit after it.

Below, each entry is followed by its recorded log K result.
INSERT INTO assay_data (smiles_code, test_result) VALUES
  ('CC(=O)NCCCC(=O)Oc1ccc([N+](=O)[O-])cc1', -2.21),
  ('CCCC[C@H](NC(=O)OCc1ccccc1)C(=O)Oc1ccc([N+](=O)[O-])cc1', 1.1);

Look up log K for this compound: O=C(CI)Oc1ccc([N+](=O)[O-])cc1 -0.1

Look up log K for this compound: CCCC(=O)NCC(=O)Oc1ccc([N+](=O)[O-])cc1 -0.06

Look up log K for this compound: CC(=O)Oc1ccc([N+](=O)[O-])cc1 -2

Look up log K for this compound: CC(C)C[C@@H](NC(=O)OCc1ccccc1)C(=O)Oc1ccc([N+](=O)[O-])cc1 -0.96

Look up log K for this compound: C[C@@H](NC(=O)OCc1ccccc1)C(=O)Oc1ccc([N+](=O)[O-])cc1 -1.05

Look up log K for this compound: O=C(CCl)Oc1ccc([N+](=O)[O-])cc1 0.47

Look up log K for this compound: NC(=O)C[C@H](NC(=O)OCc1ccccc1)C(=O)Oc1ccc([N+](=O)[O-])cc1 1.53

Look up log K for this compound: CCCC(=O)Oc1ccc([N+](=O)[O-])cc1 -2.22

Look up log K for this compound: CCC(=O)NCC(=O)Oc1ccc([N+](=O)[O-])cc1 -0.25

---

Assay: Binding affinity to chymotrypsin (unknown origin)
Conditions: Homo sapiens
# log(1/Km) listing for each entry below
Write the number on its own, no unit after it.

Below, each entry is followed by its recorded log(1/Km) result.
INSERT INTO measurements (smiles_code, test_result) VALUES
  ('COC(=O)[C@H](C)NC(=O)c1ccc2ccccc2n1', 3.66),
  ('Cc1ccc(OC(=O)[C@H](Cc2ccccc2)NS(C)(=O)=O)cc1', 4.7),
  ('O=C(CNC(=O)c1ccccc1)Oc1ccc(F)cc1', 3.85),
  ('CCOC(=O)C[C@H](NC(C)=O)C(=O)OCC', 1.64),
  ('COC(=O)[C@@H](C)NC(=O)c1ccncc1', 1.57),
  ('CC(=O)N[C@@H](Cc1ccccc1)C(=O)O[C@@H](C)C1CCCCC1', 3.28),
  ('COC(=O)[C@H](C)NC(=O)c1cccs1', 1.82),
  ('CCC[C@H](NC(=O)OCc1ccccc1)C(=O)Oc1ccc([N+](=O)[O-])cc1', 5.57);

Look up log(1/Km) for this molecule: CC[C@@H](NC(=O)OCc1ccccc1)C(=O)Oc1ccc([N+](=O)[O-])cc1 5.71

Look up log(1/Km) for this molecule: COC(=O)[C@H](Cc1ccc(O)cc1)NC(=O)c1ccccc1 4.74

Look up log(1/Km) for this molecule: COC(=O)[C@@H](C)NC(=O)c1cccnc1 2.22

---

# log1/Ki listing for each entry below
Assay: Inhibition of chymotrypsin (unknown origin)
Settings: Homo sapiens

INSERT INTO measurements (smiles_code, measured_property, test_result) VALUES
  ('O=C(O)c1ccc2ccccc2c1', 'log1/Ki', 3.86),
  ('C1=Cc2ccccc2C1', 'log1/Ki', 3.67),
  ('O=C(O)c1ccccc1', 'log1/Ki', 1.99),
  ('Cc1ccc(C(=O)O)cc1', 'log1/Ki', 2.43),
  ('O=C(O)CCCc1ccccc1', 'log1/Ki', 3.22);

Look up log1/Ki for this compound: CC(C)(C)c1ccc(C(=O)O)cc1 3.89

---

Experiment: Binding affinity to chymotrypsin (unknown origin) assessed as acetylation at pH 7
Settings: Homo sapiens
MEASURED_PROPERTY: log K
Write the number on its own, no unit after it.

Below, each entry is followed by its recorded log K result.
INSERT INTO results (smiles_code, test_result) VALUES
  ('Cc1ccc(C(=O)Oc2ccc([N+](=O)[O-])cc2)cc1', 3.31),
  ('CCOC(=O)[C@@H](NC(C)=O)C(C)C', -0.26),
  ('O=C(Oc1ccc([N+](=O)[O-])cc1)c1ccc(C(F)(F)F)cc1', 3.95);

Look up log K for this compound: COC(=O)[C@H](Cc1ccc(O)cc1)NC(=O)c1ccccc1 2.56

Look up log K for this compound: O=C(Oc1ccc([N+](=O)[O-])cc1[N+](=O)[O-])c1cccc(Cl)c1 5.47

Look up log K for this compound: O=C(Oc1ccc([N+](=O)[O-])cc1[N+](=O)[O-])c1cccc(F)c1 5.25

---

# log K listing for each entry below
Assay: Binding affinity to chymotrypsin (unknown origin) assessed as acetylation at pH 7
Conditions: Homo sapiens
Write the number on its own, no unit after it.

INSERT INTO results (smiles_code, measured_property, test_result) VALUES
  ('COc1ccc(C(=O)Oc2ccc([N+](=O)[O-])cc2)cc1', 'log K', 2.97),
  ('COC(=O)[C@@H](NC(=O)CCl)C(C)C', 'log K', -0.49),
  ('O=C(Oc1ccc([N+](=O)[O-])cc1[N+](=O)[O-])c1cccc(C(F)(F)F)c1', 'log K', 5.47),
  ('O=C(Oc1ccc([N+](=O)[O-])cc1[N+](=O)[O-])c1ccccc1', 'log K', 4.86),
  ('COC(=O)[C@@H](NC(=O)c1ccccc1)C(C)C', 'log K', -1.04),
  ('CCOC(=O)[C@H](Cc1ccc(O)cc1)NC(C)=O', 'log K', 3.7),
  ('O=C(Oc1ccc([N+](=O)[O-])cc1)c1cccc(F)c1', 'log K', 3.6),
  ('O=C(Oc1ccc([N+](=O)[O-])cc1[N+](=O)[O-])c1ccc(Cl)cc1', 'log K', 5.55);

Look up log K for this molecule: O=C(Oc1ccc([N+](=O)[O-])cc1)c1ccccc1 3.16

Look up log K for this molecule: CCOC(=O)[C@H](Cc1ccc(O)cc1)NC(=O)c1ccccc1 2.4

Look up log K for this molecule: O=C(Oc1ccc([N+](=O)[O-])cc1[N+](=O)[O-])c1ccc(F)cc1 4.83

---

# log(1/Km) listing for each entry below
Experiment: Binding affinity to chymotrypsin (unknown origin)
Conditions: Homo sapiens
Write the number on its own, no unit after it.

Below, each entry is followed by its recorded log(1/Km) result.
INSERT INTO measurements (smiles_code, test_result) VALUES
  ('CC(C)C[C@@H](NC(=O)OCc1ccccc1)C(=O)Oc1ccc([N+](=O)[O-])cc1', 5.62),
  ('CCCC[C@H](NC(C)=O)C(=O)OC', 2.17),
  ('CC(C)[C@H](NC(=O)OCc1ccccc1)C(=O)Oc1ccc([N+](=O)[O-])cc1', 4.75),
  ('CS(=O)(=O)N[C@@H](Cc1ccccc1)C(=O)Oc1ccc(Cl)cc1', 4.88);

Look up log(1/Km) for this compound: CC(=O)N[C@@H](Cc1ccccc1)C(=O)O[C@H](C)c1ccccc1 4.3

Look up log(1/Km) for this compound: CC(=O)NCC(=O)Oc1ccc([N+](=O)[O-])cc1 3.4

---

Assay: Binding affinity to chymotrypsin (unknown origin)
Conditions: Homo sapiens
MEASURED_PROPERTY: log(1/Km)

Below, each entry is followed by its recorded log(1/Km) result.
INSERT INTO results (smiles_code, test_result) VALUES
  ('CCCC(=O)NCC(=O)Oc1ccc([N+](=O)[O-])cc1', 3.87),
  ('O=C(N[C@@H](Cc1ccccc1)C(=O)Oc1ccc([N+](=O)[O-])cc1)OCc1ccccc1', 6.32),
  ('NC(=O)C[C@@H](NC(=O)OCc1ccccc1)C(=O)Oc1ccc([N+](=O)[O-])cc1', 5.84),
  ('COc1ccc(OC(=O)[C@H](Cc2ccccc2)NS(C)(=O)=O)cc1', 4.82);

Look up log(1/Km) for this compound: CC[C@H](NC(=O)OCc1ccccc1)C(=O)Oc1ccc([N+](=O)[O-])cc1 5.74

Look up log(1/Km) for this compound: NC(=O)C[C@H](NC(=O)OCc1ccccc1)C(=O)Oc1ccc([N+](=O)[O-])cc1 4.87

Look up log(1/Km) for this compound: COC(=O)[C@@H](NC(=O)c1ccccc1)C(C)C 2.34

Look up log(1/Km) for this compound: COC(=O)[C@@H](C)NC(=O)c1ccccc1N 2.8

Look up log(1/Km) for this compound: COC(=O)[C@H](C)NC(=O)c1ccncc1 1.54

Look up log(1/Km) for this compound: CC[C@H](C)OC(=O)[C@H](Cc1ccccc1)NC(C)=O 3.04
